Just for reference, patent US20250215029A1 is where these values come from.

Target: Recombinant STAT6 protein (STAT6 (W123-T658)) (Homo sapiens, UniProt P42226)
Construct: Recombinant STAT6 protein (STAT6 (W123-T658))
Sequence (P42226 123-658): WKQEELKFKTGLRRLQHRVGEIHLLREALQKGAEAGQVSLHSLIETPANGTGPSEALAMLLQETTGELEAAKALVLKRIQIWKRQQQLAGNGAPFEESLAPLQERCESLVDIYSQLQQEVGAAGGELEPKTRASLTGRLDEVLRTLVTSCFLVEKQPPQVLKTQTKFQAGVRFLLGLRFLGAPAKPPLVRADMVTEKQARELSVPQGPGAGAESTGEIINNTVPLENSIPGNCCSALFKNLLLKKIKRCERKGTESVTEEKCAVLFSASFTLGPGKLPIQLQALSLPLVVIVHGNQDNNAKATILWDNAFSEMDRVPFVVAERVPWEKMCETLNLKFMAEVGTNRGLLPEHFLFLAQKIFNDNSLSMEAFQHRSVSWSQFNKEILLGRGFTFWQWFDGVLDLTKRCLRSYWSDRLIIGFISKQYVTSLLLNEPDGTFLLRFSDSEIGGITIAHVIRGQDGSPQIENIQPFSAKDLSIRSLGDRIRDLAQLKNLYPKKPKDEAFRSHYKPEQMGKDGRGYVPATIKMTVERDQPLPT
Experiment: STAT6 Fluorescence Polarization (FP) Assay
Format: binding
Conditions: STAT6 (W123-T658) 250 nM, probe 5-FAM-Ap[…]-NH2 2 nM, 45-minute incubation; read-out: STAT6 (FP assay IC50 class)
pIC50: −log10 of the molar value.
Item-by-item account of pIC50

In the examples that follow, each entry is paired with its recorded pIC50.
CC(NC(=O)[C@@H]1CC[C@@H]2CCCC[C@H](NC(=O)c3cc4cc(C(F)(F)P(=O)(O)O)ccc4s3)C(=O)N21)c1c[nH]c2ncccc12 (stereo partly drawn) [Compound 1113] | 5.52 to 6.52
O=C(N[C@H]1CCC[C@H]2CC[C@@H](C(=O)N[C@H]3CN(c4ncc[nH]4)C[C@@H]3F)N2C1=O)c1cc2cc([C@H](F)P(=O)(O)O)ccc2s1 [Compound 637] | 5.52 to 6.52

Now consider the entry below.
Look up Recombinant STAT6 protein (STAT6 (W123-T658)) (Homo sapiens, UniProt P42226) data: pIC50 of O=C(N[C@H]1CCC[C@H]2CC[C@@H](C(=O)N3CCOC(c4cccnc4)C3)N2C1=O)c1cc2cc(C(F)(F)P(=O)(O)O)ccc2s1 (stereo partly drawn) [Compound 1124] , then report it.
≥ 6.52
